- Test Name: activity coefficient (dimensionless); of the first substance listed, at infinite dilution; xn = mol fraction of the nth substance listed
- Condition Summary: 313.15 K; Liquid; Chromatography; x1 = 0
Assay Endpoint: activity coefficient

ClC(Cl)(Cl)Cl [tetrachloromethane] + CCCCn1cc[n+](C)c1.F[B-](F)(F)F    6.09

I = CC(C)O [propan-2-ol] + CCCCn1cc[n+](C)c1.F[B-](F)(F)F
II = CCOC(C)=O [ethyl acetate] + CCCCn1cc[n+](C)c1.F[B-](F)(F)F
Query :: Response body: label of entry with the larger activity coefficient; valid values I , II . Indicate your choice by writing its label.
Result :: II
(II: 3.34, I: 2.22)

a = CC(C)CO [2-methyl-1-propanol] + CCCCn1cc[n+](C)c1.F[B-](F)(F)F
b = CC#N [acetonitrile] + CCCCn1cc[n+](C)c1.F[B-](F)(F)F
c = CCO [ethanol] + CCCCn1cc[n+](C)c1.F[B-](F)(F)F
Query :: Order field: activity coefficient | Direction: descending (largest first) Please respond with the labels ordered as the question requires.
Result :: a, c, b

A = CCCO [propan-1-ol] + CCCCn1cc[n+](C)c1.F[B-](F)(F)F
B = CO [methanol] + CCCCn1cc[n+](C)c1.F[B-](F)(F)F
C = CCCCCO [pentan-1-ol] + CCCCn1cc[n+](C)c1.F[B-](F)(F)F
D = CCCCO [butan-1-ol] + CCCCn1cc[n+](C)c1.F[B-](F)(F)F
Query :: List these items ordered by activity coefficient, big to small. Answer by naming the labels in the order asked.
Result :: C, D, A, B

P = CCC(C)O (stereo unspecified) [butan-2-ol] + CCCCn1cc[n+](C)c1.F[B-](F)(F)F
Q = C1COCCO1 [1,4-dioxane] + CCCCn1cc[n+](C)c1.F[B-](F)(F)F
R = CC(C)CCO [3-methylbutan-1-ol] + CCCCn1cc[n+](C)c1.F[B-](F)(F)F
Query :: Ascending by activity coefficient, please: list the molecules accordingly. Your answer should be the labels, listed in the requested order.
Result :: Q, P, R
(Q: 1.54, P: 3.44, R: 5.74)

###

- Test Name: activity coefficient (dimensionless); of the first substance listed, at infinite dilution; xn = mol fraction of the nth substance listed
- Condition Summary: 333.15 K; Liquid; Chromatography; x1 = 0
Assay Endpoint: activity coefficient

ClCCl [dichloromethane] + CCCCn1cc[n+](C)c1.F[B-](F)(F)F    1.24

1 = CO [methanol] + CCCCn1cc[n+](C)c1.F[B-](F)(F)F
2 = C1COCCO1 [1,4-dioxane] + CCCCn1cc[n+](C)c1.F[B-](F)(F)F
3 = O=C1CCCCC1 [cyclohexanone] + CCCCn1cc[n+](C)c1.F[B-](F)(F)F
4 = CC(C)CCO [3-methylbutan-1-ol] + CCCCn1cc[n+](C)c1.F[B-](F)(F)F
Query :: Order the items by recorded activity coefficient; the first position goes to the largest value. As an answer, provide the labels arranged in the order called for.
Result :: 4, 3, 2, 1

a = CC#N [acetonitrile] + CCCCn1cc[n+](C)c1.F[B-](F)(F)F
b = CCO [ethanol] + CCCCn1cc[n+](C)c1.F[B-](F)(F)F
c = CCCO [propan-1-ol] + CCCCn1cc[n+](C)c1.F[B-](F)(F)F
d = CCOC(C)=O [ethyl acetate] + CCCCn1cc[n+](C)c1.F[B-](F)(F)F
Query :: Order field: activity coefficient | Direction: descending (largest first) The reply should contain the labels ordered as requested.
Result :: d, c, b, a

I = ClC(Cl)Cl [trichloromethane] + CCCCn1cc[n+](C)c1.F[B-](F)(F)F
II = CCCCCO [pentan-1-ol] + CCCCn1cc[n+](C)c1.F[B-](F)(F)F
III = CCCCO [butan-1-ol] + CCCCn1cc[n+](C)c1.F[B-](F)(F)F
Query :: Given 3 compounds, produce a descending ranking by activity coefficient. Labels, ranked as asked.
Result :: II, III, I
(II: 4.56, III: 2.98, I: 1.36)

a = CC(C)CO [2-methyl-1-propanol] + CCCCn1cc[n+](C)c1.F[B-](F)(F)F
b = CCC(C)O (configuration not stated) [butan-2-ol] + CCCCn1cc[n+](C)c1.F[B-](F)(F)F
Query :: Lab note: check whether a or b has the lower measured activity coefficient. I would appreciate it if you answered with the label of your choice.
Result :: a

###

- Test Name: activity coefficient (dimensionless); of the first substance listed, at infinite dilution; xn = mol fraction of the nth substance listed
- Condition Summary: 323.15 K; Liquid; Chromatography; x1 = 0
Assay Endpoint: activity coefficient

1 = CO [methanol] + CCCCn1cc[n+](C)c1.F[B-](F)(F)F
2 = ClCCl [dichloromethane] + CCCCn1cc[n+](C)c1.F[B-](F)(F)F
3 = CC(C)CO [2-methyl-1-propanol] + CCCCn1cc[n+](C)c1.F[B-](F)(F)F
Query :: I'd appreciate it if you sorted the entries above by their activity coefficient, lowest to highest. To answer, write out the labels according to the requested order.
Result :: 1, 2, 3
(1: 0.646, 2: 1.2, 3: 1.86)

###

- Test Name: activity coefficient (dimensionless); of the first substance listed, at infinite dilution; xn = mol fraction of the nth substance listed
- Condition Summary: 343.15 K; Liquid; Chromatography; x1 = 0
Assay Endpoint: activity coefficient

The cases that follow already have their activity coefficient on record.
CCC(C)O (stereo not drawn) [butan-2-ol] + CCCCn1cc[n+](C)c1.F[B-](F)(F)F    2.56
CO [methanol] + CCCCn1cc[n+](C)c1.F[B-](F)(F)F    0.529
CC(C)O [propan-2-ol] + CCCCn1cc[n+](C)c1.F[B-](F)(F)F    1.53

1 = CCCO [propan-1-ol] + CCCCn1cc[n+](C)c1.F[B-](F)(F)F
2 = CCCCCO [pentan-1-ol] + CCCCn1cc[n+](C)c1.F[B-](F)(F)F
Query :: Of 1 and 2 , which shows the smaller activity coefficient value? # reply format: chosen label
Result :: 1
(1: 1.64, 2: 4)

###

- Test Name: activity coefficient (dimensionless); of the first substance listed, at infinite dilution; xn = mol fraction of the nth substance listed
- Condition Summary: 303.15 K; Liquid; Chromatography; x1 = 0
Assay Endpoint: activity coefficient

Below, 4 molecules whose answers are already recorded.
CCCCCO [pentan-1-ol] + CCCCn1cc[n+](C)c1.F[B-](F)(F)F    6.96
CC(C)CO [2-methyl-1-propanol] + CCCCn1cc[n+](C)c1.F[B-](F)(F)F    2.63
CO [methanol] + CCCCn1cc[n+](C)c1.F[B-](F)(F)F    0.813
ClC(Cl)Cl [trichloromethane] + CCCCn1cc[n+](C)c1.F[B-](F)(F)F    1.11

a = CC#N [acetonitrile] + CCCCn1cc[n+](C)c1.F[B-](F)(F)F
b = CCO [ethanol] + CCCCn1cc[n+](C)c1.F[B-](F)(F)F
c = CCOC(C)=O [ethyl acetate] + CCCCn1cc[n+](C)c1.F[B-](F)(F)F
Query :: Rank entries according to their activity coefficient, from the largest number down. Rank the items, then write their labels in that order.
Result :: c, b, a
(c: 3.3, b: 1.59, a: 0.734)

###

- Test Name: activity coefficient (dimensionless); of the first substance listed, at infinite dilution; xn = mol fraction of the nth substance listed
- Condition Summary: 323.15 K; Liquid; Chromatography; x1 = 0
Assay Endpoint: activity coefficient

CC(C)=O [acetone] + CCCCn1cc[n+](C)c1.F[B-](F)(F)F    1.21
C1COCCO1 [1,4-dioxane] + CCCCn1cc[n+](C)c1.F[B-](F)(F)F    1.55
ClC(Cl)Cl [trichloromethane] + CCCCn1cc[n+](C)c1.F[B-](F)(F)F    1.28

###

- Test Name: activity coefficient (dimensionless); of the first substance listed, at infinite dilution; xn = mol fraction of the nth substance listed
- Condition Summary: 313.15 K; Liquid; Chromatography; x1 = 0
Assay Endpoint: activity coefficient

ClC(Cl)Cl [trichloromethane] + CCCCn1cc[n+](C)c1.F[B-](F)(F)F    1.21
ClCCl [dichloromethane] + CCCCn1cc[n+](C)c1.F[B-](F)(F)F    1.15
CC(C)=O [acetone] + CCCCn1cc[n+](C)c1.F[B-](F)(F)F    1.19

###

Each entry below carries its recorded activity coefficient.
- Test Name: activity coefficient (dimensionless); of the first substance listed, at infinite dilution; xn = mol fraction of the nth substance listed
- Condition Summary: 333.15 K; Liquid; Chromatography; x1 = 0
Please respond with just the number, no unit label.

Below are worked cases with known answers.
ClC(Cl)(Cl)Cl [tetrachloromethane] + CCCCn1cc[n+](C)c1.F[B-](F)(F)F    6.42
CC(C)O [propan-2-ol] + CCCCn1cc[n+](C)c1.F[B-](F)(F)F    1.66

Moving on to another molecule below.
The value of activity coefficient measured for the molecule CC(C)=O [acetone] + CCCCn1cc[n+](C)c1.F[B-](F)(F)F turned out to be 1.23
